# maps each entry to its EC50
# Measured target: α4β7 integrin (Homo sapiens, UniProt P13612+P26010)
# Construct: monitoring the capture of α4β7 integrin expressing cells; endogenous in cells; host or cells: RPMI8866
# Sequence (P13612 34-1032): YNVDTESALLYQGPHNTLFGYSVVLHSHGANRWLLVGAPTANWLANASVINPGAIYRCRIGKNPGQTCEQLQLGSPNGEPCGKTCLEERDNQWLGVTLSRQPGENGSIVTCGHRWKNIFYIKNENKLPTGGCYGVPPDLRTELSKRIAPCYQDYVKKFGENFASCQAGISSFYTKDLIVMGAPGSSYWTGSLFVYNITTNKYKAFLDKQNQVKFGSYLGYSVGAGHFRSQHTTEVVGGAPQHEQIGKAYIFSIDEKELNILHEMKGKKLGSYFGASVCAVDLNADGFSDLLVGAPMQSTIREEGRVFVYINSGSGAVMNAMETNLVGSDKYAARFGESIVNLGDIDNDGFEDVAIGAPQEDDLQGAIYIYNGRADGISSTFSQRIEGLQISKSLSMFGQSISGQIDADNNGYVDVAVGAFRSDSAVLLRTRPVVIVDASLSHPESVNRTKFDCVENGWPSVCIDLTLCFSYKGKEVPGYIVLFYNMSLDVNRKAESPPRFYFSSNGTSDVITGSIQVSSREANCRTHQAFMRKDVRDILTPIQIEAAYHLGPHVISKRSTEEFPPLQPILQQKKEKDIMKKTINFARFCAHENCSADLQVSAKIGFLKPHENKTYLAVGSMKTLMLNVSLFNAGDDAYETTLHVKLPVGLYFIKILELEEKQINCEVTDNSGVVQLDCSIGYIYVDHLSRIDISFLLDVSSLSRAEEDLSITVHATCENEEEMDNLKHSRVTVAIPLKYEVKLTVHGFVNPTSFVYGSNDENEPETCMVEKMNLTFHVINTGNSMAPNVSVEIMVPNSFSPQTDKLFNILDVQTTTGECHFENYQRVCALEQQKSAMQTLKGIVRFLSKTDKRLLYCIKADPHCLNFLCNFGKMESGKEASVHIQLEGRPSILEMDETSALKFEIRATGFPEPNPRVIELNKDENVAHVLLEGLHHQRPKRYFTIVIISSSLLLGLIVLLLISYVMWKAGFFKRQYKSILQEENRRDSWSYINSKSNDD
# Sequence (P26010 20-798): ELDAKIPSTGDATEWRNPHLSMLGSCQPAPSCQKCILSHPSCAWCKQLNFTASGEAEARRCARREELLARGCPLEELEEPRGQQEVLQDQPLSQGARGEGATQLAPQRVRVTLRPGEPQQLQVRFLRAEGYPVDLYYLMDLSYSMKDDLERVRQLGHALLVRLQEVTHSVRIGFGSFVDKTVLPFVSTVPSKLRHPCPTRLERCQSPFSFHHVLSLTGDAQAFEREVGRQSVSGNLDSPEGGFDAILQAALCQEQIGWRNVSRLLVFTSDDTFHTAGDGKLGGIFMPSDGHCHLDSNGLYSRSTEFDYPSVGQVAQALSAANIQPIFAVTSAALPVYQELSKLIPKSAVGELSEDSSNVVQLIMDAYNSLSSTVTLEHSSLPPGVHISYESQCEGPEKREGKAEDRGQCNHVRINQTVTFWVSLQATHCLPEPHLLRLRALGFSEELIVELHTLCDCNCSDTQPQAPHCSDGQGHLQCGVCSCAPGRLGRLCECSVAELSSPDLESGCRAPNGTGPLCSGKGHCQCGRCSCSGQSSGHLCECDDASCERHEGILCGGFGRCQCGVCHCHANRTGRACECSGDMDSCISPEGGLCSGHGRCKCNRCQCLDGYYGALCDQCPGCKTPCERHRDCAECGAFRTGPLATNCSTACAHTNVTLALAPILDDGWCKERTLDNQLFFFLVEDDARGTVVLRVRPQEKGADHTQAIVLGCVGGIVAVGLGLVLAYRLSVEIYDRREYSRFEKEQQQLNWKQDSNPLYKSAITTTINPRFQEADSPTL
# Experimental details: α4β7 Integrin Cell Capture Assay
# Assay type: cell-based
# Run parameters: capture of α4β7 integrin expressing RPM18866 cells on MadCAM-1 extracellular domain-coated plate; Table 2
Number only, in nM; omit the unit.

Molecule: COc1cc(C)n(C)c(=O)c1-c1ccc(C[C@H](NC(=O)c2c(F)cc(N3CCOC[C@@H]3C(F)(F)F)cc2F)C(=O)O)cc1
Output unit: nM
EC50: 0.5

Inquiry: Given the molecule "Cc1c(-c2ccc(C[C@H](NC(=O)c3c(F)cc(N4CCOC[C@@H]4C(F)(F)F)cc3F)C(=O)O)cc2)c(=O)n(C)c(=O)n1C" , what is its reported EC50?
Reply text: 0.4

Inquiry: Need EC50 of "Cc1cc(C[C@H](NC(=O)c2c(C)cc(N3CCOC[C@@H]3C(F)(F)F)cc2F)C(=O)O)ccc1-c1nc(C)c(C)n(C)c1=O" , thanks.
Reply text: 0.3

Inquiry: Quick one: EC50 of "Cc1cc(N2CCOC[C@@H]2C(F)(F)F)cc(F)c1C(=O)N[C@@H](Cc1ccc(-n2c(=O)c3c(C#N)cccc3n(C)c2=O)nc1)C(=O)O" ?
Reply text: 0.18

Inquiry: What does the record list as EC50 for "Cc1cc(N2CCOC[C@H]2CC(F)(F)F)cc(F)c1C(=O)N[C@@H](Cc1ccc(-n2c(=O)c3ccncc3n(C)c2=O)nc1)C(=O)O" ?
Reply text: 4.2

====

# Measured target: α4β7 integrin (Homo sapiens, UniProt P13612+P26010)
# Construct: monitoring the capture of α4β7 integrin expressing cells; endogenous in cells; host or cells: RPMI8866
# Experimental details: α4β7 Integrin Cell Capture Assay
# Assay type: cell-based
# Run parameters: capture of α4β7 integrin expressing RPM18866 cells on MadCAM-1 extracellular domain-coated plate; Table 1
Reported EC50 by item:
// return numeric value only (unit: pM, not printed)

Answered cases to consult:
Molecule: Cc1cc(C(F)(F)F)c(-c2ccc(C[C@H](NC(=O)c3c(F)cc(N4CCOC[C@@H]4C(F)(F)F)cc3F)C(=O)O)cc2)c(=O)n1C [Example 3]
Output unit: pM
Reported result: 500
--
Molecule: Cn1c(=O)n(-c2ccc(C[C@H](NC(=O)c3c(F)cc(N4CCOC[C@@H]4C(F)(F)F)cc3Cl)C(=O)O)cn2)c(=O)c2ccncc21 [Example 55]
Output unit: pM
Reported result: 100
--
Molecule: Cc1cc(N2CCOC[C@@H]2C(F)(F)F)cc(F)c1C(=O)N[C@@H](Cc1ccc(-n2c(=O)c3ccncc3n(C)c2=O)cn1)C(=O)O [Example 23]
Output unit: pM
Reported result: 200

Inquiry: Consider the molecule shown here: Cc1cc(N2CCOC[C@@H]2C(F)(F)F)cc(F)c1C(=O)N[C@@H](Cc1ccc(-n2c(=O)c3ccncc3n(C)c2=O)cc1)C(=O)O [Example 25] What is its recorded EC50?
Reply text: 100

Inquiry: Entry Cc1cc(N2CCOC[C@@H]2C(F)(F)F)cc(F)c1C(=O)N[C@@H](Cc1ccc(-n2c(=O)c3c(n(C)c2=O)CCOC3)cc1)C(=O)O [Example 59] has what EC50?
Reply text: 100

Inquiry: Endpoint output: EC50 of CC[C@@H](Nc1cc(F)c(C(=O)N[C@@H](Cc2ccc(-n3c(=O)c4ccncc4n(C)c3=O)nc2)C(=O)O)c(F)c1)C(F)(F)F [Example 9] . Value?
Reply text: 1600

Inquiry: Requested field: EC50. Item: CC[C@@H](Nc1cc(C)c(C(=O)N[C@@H](Cc2ccc(-n3c(=O)c4ccncc4n(C)c3=O)nc2)C(=O)O)c(F)c1)C(F)(F)F [Example 11]
Reply text: 500
